// provenance: paper PMC9777575

Assign EC50 to each entry below.
- measurement_target: Tyrosinase (from mushroom, EC1.14.18.1)
- assay_info: Mushroom tyrosinase activity assay (L-DOPA substrate, absorbance at 475 nm)
- condition_set: effective concentration to promote relative enzyme activity at 150%, 37 °C, 30 min, read-out: EC50 of activation effect on tyrosinase
Numbers only; they are read as µM.

The molecule listed as Oc1cc(O)c2c(c1)O[C@H](c1ccc(O)c(O)c1)[C@H](O)C2 [(−)-Epicatechin] has a reported EC50 of 36.7

The molecule listed as Oc1cc(O)c2c(c1)OC(c1ccc(O)c(O)c1)C(O)C2 (single isomer, unassigned; (+)) [(+)-Catechin] has a reported EC50 of 32.5
